# test target: EPHB2 (UniProt P29323)
# Sequence (P29323 whole entry, looked up): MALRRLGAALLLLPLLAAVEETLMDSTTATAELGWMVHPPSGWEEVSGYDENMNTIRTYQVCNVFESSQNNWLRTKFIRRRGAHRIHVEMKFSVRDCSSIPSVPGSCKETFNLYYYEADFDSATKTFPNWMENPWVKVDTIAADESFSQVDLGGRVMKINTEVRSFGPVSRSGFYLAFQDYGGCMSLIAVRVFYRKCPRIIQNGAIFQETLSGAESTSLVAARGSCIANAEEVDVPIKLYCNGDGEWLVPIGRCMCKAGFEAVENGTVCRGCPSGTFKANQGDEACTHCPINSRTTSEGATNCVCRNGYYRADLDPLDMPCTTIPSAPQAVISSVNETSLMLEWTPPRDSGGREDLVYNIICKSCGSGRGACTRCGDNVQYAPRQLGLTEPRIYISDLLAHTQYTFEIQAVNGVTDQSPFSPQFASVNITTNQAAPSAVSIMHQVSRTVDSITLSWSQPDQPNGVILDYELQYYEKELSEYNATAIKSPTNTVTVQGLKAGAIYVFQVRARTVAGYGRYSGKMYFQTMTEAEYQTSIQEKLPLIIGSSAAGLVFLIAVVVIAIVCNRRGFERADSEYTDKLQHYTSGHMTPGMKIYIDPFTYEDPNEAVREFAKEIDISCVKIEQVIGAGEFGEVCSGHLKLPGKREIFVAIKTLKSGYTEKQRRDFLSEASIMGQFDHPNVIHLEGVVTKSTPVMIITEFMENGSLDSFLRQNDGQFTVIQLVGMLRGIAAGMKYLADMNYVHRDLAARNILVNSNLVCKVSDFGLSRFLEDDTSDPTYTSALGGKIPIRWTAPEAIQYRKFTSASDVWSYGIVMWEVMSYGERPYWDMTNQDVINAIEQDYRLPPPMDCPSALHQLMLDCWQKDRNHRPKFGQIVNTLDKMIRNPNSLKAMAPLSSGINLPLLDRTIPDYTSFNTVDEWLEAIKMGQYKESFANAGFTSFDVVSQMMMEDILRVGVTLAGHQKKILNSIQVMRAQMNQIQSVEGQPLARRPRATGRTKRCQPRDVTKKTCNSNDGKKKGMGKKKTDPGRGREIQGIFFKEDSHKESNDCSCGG
# experiment: phosphorylation enrichment, bacterial display (enrichment ratio); higher = better substrate or ligand; peptides without Tyr show the background;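 note: 11-residue human phosphosite peptides and single-mutation variants displayed on the E. coli surface, counted by deep sequencing, each peptide's frequency after selection divided by its frequency in the unselected input library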;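 note: frequency after pTyr selection over input frequency; kinase dosed for 20-30% of maximal phosphorylation in three min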
property name: phosphorylation enrichment
Simply state the number, no unit and no words.

Example cases with answers are listed next.
sequence_code="FFVVRYCWLRR [MPZ_Y181_YF]" quantitative_readout=0.496
sequence_code="SQSKGYRPKLY [SIPA1L3_Y1376_G1371S]" quantitative_readout=0.337

According to the records, this sequence KRLKDYLTVLQ [USP25_Y425] displays phosphorylation enrichment of 0.412

According to the records, this sequence FNSLLYQVPTS [CALCOCO2_Y358_P357L] displays phosphorylation enrichment of 18.8

According to the records, this sequence VLICAYLLHRG [PTEN_Y138_M134L] displays phosphorylation enrichment of 0.661

According to the records, this sequence TINPIHEHVGY [CHN1_Y143_Y143H] displays phosphorylation enrichment of 0.433

According to the records, this sequence VIGRMYDYHVL [RPF2_Y109] displays phosphorylation enrichment of 1.7
